Source listed as paper PMC8249783.

experiment: Pharmacokinetics study after IV and PO administration to SD rats; assay type: in vivo; settings: SD, rat, plasma, iv, 2 mg/kg, SD rats, i.v. 2 mg·kg^−1; read-out: MRT0‐∞
MEASURED QUANTITY: MRT (h)
The response must be a number in h with no trailing unit.

Kindly note the recorded MRT for COc1cc(OC)c(Cl)c(-c2ccc3c(/C=C/c4ccc(N(C)C(=O)CN5CCN(C)CC5)cc4)n[nH]c3c2)c1Cl , which is 5.16

----------
target: Flt4 (h)/VEGFR3 (Homo sapiens); test: Kinase profile assay and IC50 test (Eurofins); details: double testing
Sequence (P35916 25-1363): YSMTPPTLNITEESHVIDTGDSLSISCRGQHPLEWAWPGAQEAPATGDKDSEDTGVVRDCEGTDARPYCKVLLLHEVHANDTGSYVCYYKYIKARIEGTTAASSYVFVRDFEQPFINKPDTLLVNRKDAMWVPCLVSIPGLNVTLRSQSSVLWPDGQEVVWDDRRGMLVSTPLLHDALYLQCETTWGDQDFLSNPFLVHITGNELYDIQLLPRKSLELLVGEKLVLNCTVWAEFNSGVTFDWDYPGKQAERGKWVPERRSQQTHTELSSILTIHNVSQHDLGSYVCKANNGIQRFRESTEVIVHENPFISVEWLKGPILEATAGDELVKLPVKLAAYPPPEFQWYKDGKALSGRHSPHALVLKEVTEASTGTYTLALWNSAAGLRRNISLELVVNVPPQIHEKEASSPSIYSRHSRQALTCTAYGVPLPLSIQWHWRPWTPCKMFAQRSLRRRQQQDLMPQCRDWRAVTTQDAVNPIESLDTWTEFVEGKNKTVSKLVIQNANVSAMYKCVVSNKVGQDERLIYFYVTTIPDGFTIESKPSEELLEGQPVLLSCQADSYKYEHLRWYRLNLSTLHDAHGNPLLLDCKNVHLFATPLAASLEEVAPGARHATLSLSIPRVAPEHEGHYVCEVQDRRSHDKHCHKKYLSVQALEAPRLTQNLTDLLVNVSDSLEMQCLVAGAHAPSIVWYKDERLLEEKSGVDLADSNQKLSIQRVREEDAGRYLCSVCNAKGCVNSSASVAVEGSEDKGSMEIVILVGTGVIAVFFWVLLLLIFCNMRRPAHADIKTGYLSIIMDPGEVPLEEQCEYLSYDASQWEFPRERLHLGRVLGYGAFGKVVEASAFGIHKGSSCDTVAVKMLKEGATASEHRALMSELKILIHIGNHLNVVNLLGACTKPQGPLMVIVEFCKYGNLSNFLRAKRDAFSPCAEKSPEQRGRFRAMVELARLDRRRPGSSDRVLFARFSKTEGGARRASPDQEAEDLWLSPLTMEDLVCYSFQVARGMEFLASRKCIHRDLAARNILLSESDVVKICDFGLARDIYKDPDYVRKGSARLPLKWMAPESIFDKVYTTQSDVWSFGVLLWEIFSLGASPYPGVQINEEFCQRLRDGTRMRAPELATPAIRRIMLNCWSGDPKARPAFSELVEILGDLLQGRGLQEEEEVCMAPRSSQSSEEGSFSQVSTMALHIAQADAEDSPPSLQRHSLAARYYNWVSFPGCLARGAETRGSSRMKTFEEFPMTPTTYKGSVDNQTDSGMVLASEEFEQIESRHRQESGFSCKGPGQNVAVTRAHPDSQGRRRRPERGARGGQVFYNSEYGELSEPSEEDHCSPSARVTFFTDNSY
MEASURED QUANTITY: IC50 (nM)
The response must be a number in nM with no trailing unit.

Kindly note the recorded IC50 for COc1cc(OC)c(Cl)c(-c2ccc3c(/C=C/c4ccc(N(C)C(=O)CN5CCN(C)CC5)cc4)n[nH]c3c2)c1Cl [YTH‐60] , which is 64

----------
test: Pharmacokinetics study after IV and PO administration to SD rats; format: in vivo; conditions: SD, rat, plasma, po, 20 mg/kg, PO 20 mg/kg, 6 h; read-out: Mean plasma concentration
MEASURED QUANTITY: concentration at 6 h (ng/mL)
The response must be a number in ng/mL with no trailing unit.

Kindly note the recorded concentration at 6 h for COc1cc(OC)c(Cl)c(-c2ccc3c(/C=C/c4ccc(N(C)C(=O)CN5CCN(C)CC5)cc4)n[nH]c3c2)c1Cl [YTH‐60] , which is 94.2

----------
assay: Pharmacokinetics study after IV and PO administration to SD rats; type: in vivo; settings: Sprague-Dawley, rat, plasma, iv, 2 mg/kg, IV 2 mg/kg, 0.25 h; individual animals 101, 102, 103; read-out: Individual plasma concentration
MEASURED QUANTITY: concentration at 0.25 h (ng/mL)
The response must be a number in ng/mL with no trailing unit.

Kindly note the recorded concentration at 0.25 h for COc1cc(OC)c(Cl)c(-c2ccc3c(/C=C/c4ccc(N(C)C(=O)CN5CCN(C)CC5)cc4)n[nH]c3c2)c1Cl , which is 187

----------
assay: Pharmacokinetics study after IV and PO administration to SD rats; assay type: in vivo; conditions: SD, rat, plasma, iv, 2 mg/kg, IV 2 mg/kg, 2 h; individual animals 101, 102, 103; read-out: Individual plasma concentration
MEASURED QUANTITY: concentration at 2 h (ng/mL)
The response must be a number in ng/mL with no trailing unit.

Kindly note the recorded concentration at 2 h for COc1cc(OC)c(Cl)c(-c2ccc3c(/C=C/c4ccc(N(C)C(=O)CN5CCN(C)CC5)cc4)n[nH]c3c2)c1Cl , which is 68.3

----------
test: Pharmacokinetics study after IV and PO administration to SD rats; assay type: in vivo; conditions: Sprague-Dawley, rat, plasma, po, 20 mg/kg, PO 20 mg/kg, 1 h; individual animals 201, 202, 203; read-out: Individual plasma concentration
MEASURED QUANTITY: concentration at 1 h

Kindly note the recorded concentration at 1 h for COc1cc(OC)c(Cl)c(-c2ccc3c(/C=C/c4ccc(N(C)C(=O)CN5CCN(C)CC5)cc4)n[nH]c3c2)c1Cl [YTH‐60] , which is 35.9 ng/mL

----------
Assay: Pharmacokinetics study after IV and PO administration to SD rats
Type: in vivo
Conditions: Sprague-Dawley, rat, plasma, iv, 2 mg/kg, IV 2 mg/kg, 1 h; individual animals 101, 102, 103; read-out: Individual plasma concentration
Procedure: The appropriate amount of YTH‐60 was accurately weighed, added to the final volume of 5% DMSO, 40% PEG400 and 55% normal saline, and vortexed or ultrasonicated to fully mix. Then, 0.4 and 2 mg·mL^−1 of clarified dosing solution was used for intravenous administration and oral gavage administration. […]
MEASURED QUANTITY: concentration at 1 h (ng/mL)
The response must be a number in ng/mL with no trailing unit.

Kindly note the recorded concentration at 1 h for COc1cc(OC)c(Cl)c(-c2ccc3c(/C=C/c4ccc(N(C)C(=O)CN5CCN(C)CC5)cc4)n[nH]c3c2)c1Cl , which is 112

----------
test: Pharmacokinetics study after IV and PO administration to SD rats; format: in vivo; settings: SD, rat, plasma, po, 20 mg/kg, PO 20 mg/kg, 8 h; individual animals 201, 202, 203; read-out: Individual plasma concentration
MEASURED QUANTITY: concentration at 8 h (ng/mL)
The response must be a number in ng/mL with no trailing unit.

Kindly note the recorded concentration at 8 h for COc1cc(OC)c(Cl)c(-c2ccc3c(/C=C/c4ccc(N(C)C(=O)CN5CCN(C)CC5)cc4)n[nH]c3c2)c1Cl , which is 67.4

----------
assay: Determination of thermodynamic solubility; format: physicochemical; conditions: organic solvent or mixture, thermodynamic from solid; Ethyl alcohol; double testing; read-out: Solubility, Ethyl alcohol
MEASURED QUANTITY: solubility at 5 min (mg/mL)
The response must be a number in mg/mL with no trailing unit.

Kindly note the recorded solubility at 5 min for COC(=O)c1ccc2c(c1)NC(=O)/C2=C(\Nc1ccc(N(C)C(=O)CN2CCN(C)CC2)cc1)c1ccccc1 [Nintedanib, reference compound] , which is 12.5

Kindly note the recorded solubility at 5 min for COc1cc(OC)c(Cl)c(-c2ccc3c(/C=C/c4ccc(N(C)C(=O)CN5CCN(C)CC5)cc4)n[nH]c3c2)c1Cl [YTH‐60] , which is 77

----------
Hi there, I'd appreciate the recorded solubility at 5 min for every entry that follows.
assay: Determination of thermodynamic solubility; assay type: physicochemical; settings: organic solvent or mixture, thermodynamic from solid; Acetone; double testing; read-out: Solubility, Acetone
The response must be a number in mg/mL with no trailing unit.

Kindly note the recorded solubility at 5 min for COC(=O)c1ccc2c(c1)NC(=O)/C2=C(\Nc1ccc(N(C)C(=O)CN2CCN(C)CC2)cc1)c1ccccc1 [Nintedanib, reference compound] , which is 9.83

Kindly note the recorded solubility at 5 min for COc1cc(OC)c(Cl)c(-c2ccc3c(/C=C/c4ccc(N(C)C(=O)CN5CCN(C)CC5)cc4)n[nH]c3c2)c1Cl , which is 83.1

----------
experiment: Pharmacokinetics study after IV and PO administration to SD rats; assay type: in vivo; conditions: Sprague-Dawley, rat, plasma, po, 20 mg/kg, PO 20 mg/kg, 0.5 h; read-out: Mean plasma concentration
MEASURED QUANTITY: concentration at 0.5 h (ng/mL)
The response must be a number in ng/mL with no trailing unit.

Kindly note the recorded concentration at 0.5 h for COc1cc(OC)c(Cl)c(-c2ccc3c(/C=C/c4ccc(N(C)C(=O)CN5CCN(C)CC5)cc4)n[nH]c3c2)c1Cl , which is 33.8

----------
Experiment: Pharmacokinetics study after IV and PO administration to SD rats
Assay type: in vivo
Conditions: Sprague-Dawley, rat, plasma, iv, 2 mg/kg, IV 2 mg/kg, 0.25 h; read-out: Mean plasma concentration
Protocol: The appropriate amount of YTH‐60 was accurately weighed, added to the final volume of 5% DMSO, 40% PEG400 and 55% normal saline, and vortexed or ultrasonicated to fully mix. Then, 0.4 and 2 mg·mL^−1 of clarified dosing solution was used for intravenous administration and oral gavage administration. […]
MEASURED QUANTITY: concentration at 0.25 h (ng/mL)
The response must be a number in ng/mL with no trailing unit.

Kindly note the recorded concentration at 0.25 h for COc1cc(OC)c(Cl)c(-c2ccc3c(/C=C/c4ccc(N(C)C(=O)CN5CCN(C)CC5)cc4)n[nH]c3c2)c1Cl [YTH‐60] , which is 187

----------
assay: Pharmacokinetics study after IV and PO administration to SD rats; type: in vivo; settings: Sprague-Dawley, rat, plasma, po, 20 mg/kg, PO 20 mg/kg, 0.5 h; individual animals 201, 202, 203; read-out: Individual plasma concentration
MEASURED QUANTITY: concentration at 0.5 h (ng/mL)
The response must be a number in ng/mL with no trailing unit.

Kindly note the recorded concentration at 0.5 h for COc1cc(OC)c(Cl)c(-c2ccc3c(/C=C/c4ccc(N(C)C(=O)CN5CCN(C)CC5)cc4)n[nH]c3c2)c1Cl , which is 40.6

----------
test: Pharmacokinetics study after IV and PO administration to SD rats; assay type: in vivo; conditions: SD, rat, plasma, po, 20 mg/kg, SD rats, p.o. 20 mg·kg^−1; read-out: AUC0‐t
MEASURED QUANTITY: AUC (ng·h/mL)
The response must be a number in ng·h/mL with no trailing unit.

Kindly note the recorded AUC for COc1cc(OC)c(Cl)c(-c2ccc3c(/C=C/c4ccc(N(C)C(=O)CN5CCN(C)CC5)cc4)n[nH]c3c2)c1Cl , which is 1380

----------
target: Flt1 (h)/VEGFR1 (Homo sapiens); assay: Kinase profile assay and IC50 test (Eurofins); conditions: double testing
Sequence (P17948 27-1338): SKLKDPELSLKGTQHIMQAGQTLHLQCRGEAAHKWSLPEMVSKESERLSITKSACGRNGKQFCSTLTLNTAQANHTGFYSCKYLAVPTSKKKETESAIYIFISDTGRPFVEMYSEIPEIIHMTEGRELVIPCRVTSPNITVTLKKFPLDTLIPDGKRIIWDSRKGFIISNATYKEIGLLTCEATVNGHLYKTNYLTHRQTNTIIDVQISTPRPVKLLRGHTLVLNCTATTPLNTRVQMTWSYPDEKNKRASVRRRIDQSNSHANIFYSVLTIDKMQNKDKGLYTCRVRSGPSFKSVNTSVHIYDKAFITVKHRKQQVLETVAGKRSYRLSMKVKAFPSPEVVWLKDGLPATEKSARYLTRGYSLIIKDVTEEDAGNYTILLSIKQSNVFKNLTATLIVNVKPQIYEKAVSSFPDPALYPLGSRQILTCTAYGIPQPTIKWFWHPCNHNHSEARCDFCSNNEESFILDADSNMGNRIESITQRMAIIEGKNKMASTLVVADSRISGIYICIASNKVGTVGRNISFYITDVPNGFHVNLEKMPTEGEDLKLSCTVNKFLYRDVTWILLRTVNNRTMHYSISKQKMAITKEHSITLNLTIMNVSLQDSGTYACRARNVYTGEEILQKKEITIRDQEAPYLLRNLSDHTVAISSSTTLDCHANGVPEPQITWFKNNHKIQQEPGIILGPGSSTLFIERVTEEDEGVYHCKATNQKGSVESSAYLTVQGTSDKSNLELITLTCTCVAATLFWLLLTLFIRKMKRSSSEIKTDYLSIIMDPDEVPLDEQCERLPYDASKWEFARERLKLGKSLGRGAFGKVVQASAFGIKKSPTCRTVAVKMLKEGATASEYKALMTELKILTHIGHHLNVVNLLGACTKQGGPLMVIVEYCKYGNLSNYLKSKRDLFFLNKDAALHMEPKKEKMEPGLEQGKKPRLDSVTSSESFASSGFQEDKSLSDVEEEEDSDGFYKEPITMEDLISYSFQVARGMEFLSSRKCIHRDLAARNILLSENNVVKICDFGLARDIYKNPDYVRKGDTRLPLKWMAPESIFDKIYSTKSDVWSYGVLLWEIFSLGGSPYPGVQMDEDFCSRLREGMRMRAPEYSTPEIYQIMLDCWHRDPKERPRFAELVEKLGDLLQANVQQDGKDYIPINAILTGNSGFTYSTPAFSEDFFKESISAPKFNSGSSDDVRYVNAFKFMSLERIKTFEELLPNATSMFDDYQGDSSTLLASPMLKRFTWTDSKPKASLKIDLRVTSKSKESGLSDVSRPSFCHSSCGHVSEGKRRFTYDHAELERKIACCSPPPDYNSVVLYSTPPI
MEASURED QUANTITY: pIC50
Conceptually, pIC50 converts a concentration in mol/L into minus its log10.

The reported Flt1 (h)/VEGFR1 (Homo sapiens) pIC50 of COc1cc(OC)c(Cl)c(-c2ccc3c(/C=C/c4ccc(N(C)C(=O)CN5CCN(C)CC5)cc4)n[nH]c3c2)c1Cl [YTH‐60] is 6.91
